study_target: calcium channel (Cavia porcellus)
Construct: membrane preparations of guinea pig skeletal muscle; from tissue; host or cells: guinea pig skeletal muscle, membrane preparation
Sequence (A0A286X7I0 1-1867): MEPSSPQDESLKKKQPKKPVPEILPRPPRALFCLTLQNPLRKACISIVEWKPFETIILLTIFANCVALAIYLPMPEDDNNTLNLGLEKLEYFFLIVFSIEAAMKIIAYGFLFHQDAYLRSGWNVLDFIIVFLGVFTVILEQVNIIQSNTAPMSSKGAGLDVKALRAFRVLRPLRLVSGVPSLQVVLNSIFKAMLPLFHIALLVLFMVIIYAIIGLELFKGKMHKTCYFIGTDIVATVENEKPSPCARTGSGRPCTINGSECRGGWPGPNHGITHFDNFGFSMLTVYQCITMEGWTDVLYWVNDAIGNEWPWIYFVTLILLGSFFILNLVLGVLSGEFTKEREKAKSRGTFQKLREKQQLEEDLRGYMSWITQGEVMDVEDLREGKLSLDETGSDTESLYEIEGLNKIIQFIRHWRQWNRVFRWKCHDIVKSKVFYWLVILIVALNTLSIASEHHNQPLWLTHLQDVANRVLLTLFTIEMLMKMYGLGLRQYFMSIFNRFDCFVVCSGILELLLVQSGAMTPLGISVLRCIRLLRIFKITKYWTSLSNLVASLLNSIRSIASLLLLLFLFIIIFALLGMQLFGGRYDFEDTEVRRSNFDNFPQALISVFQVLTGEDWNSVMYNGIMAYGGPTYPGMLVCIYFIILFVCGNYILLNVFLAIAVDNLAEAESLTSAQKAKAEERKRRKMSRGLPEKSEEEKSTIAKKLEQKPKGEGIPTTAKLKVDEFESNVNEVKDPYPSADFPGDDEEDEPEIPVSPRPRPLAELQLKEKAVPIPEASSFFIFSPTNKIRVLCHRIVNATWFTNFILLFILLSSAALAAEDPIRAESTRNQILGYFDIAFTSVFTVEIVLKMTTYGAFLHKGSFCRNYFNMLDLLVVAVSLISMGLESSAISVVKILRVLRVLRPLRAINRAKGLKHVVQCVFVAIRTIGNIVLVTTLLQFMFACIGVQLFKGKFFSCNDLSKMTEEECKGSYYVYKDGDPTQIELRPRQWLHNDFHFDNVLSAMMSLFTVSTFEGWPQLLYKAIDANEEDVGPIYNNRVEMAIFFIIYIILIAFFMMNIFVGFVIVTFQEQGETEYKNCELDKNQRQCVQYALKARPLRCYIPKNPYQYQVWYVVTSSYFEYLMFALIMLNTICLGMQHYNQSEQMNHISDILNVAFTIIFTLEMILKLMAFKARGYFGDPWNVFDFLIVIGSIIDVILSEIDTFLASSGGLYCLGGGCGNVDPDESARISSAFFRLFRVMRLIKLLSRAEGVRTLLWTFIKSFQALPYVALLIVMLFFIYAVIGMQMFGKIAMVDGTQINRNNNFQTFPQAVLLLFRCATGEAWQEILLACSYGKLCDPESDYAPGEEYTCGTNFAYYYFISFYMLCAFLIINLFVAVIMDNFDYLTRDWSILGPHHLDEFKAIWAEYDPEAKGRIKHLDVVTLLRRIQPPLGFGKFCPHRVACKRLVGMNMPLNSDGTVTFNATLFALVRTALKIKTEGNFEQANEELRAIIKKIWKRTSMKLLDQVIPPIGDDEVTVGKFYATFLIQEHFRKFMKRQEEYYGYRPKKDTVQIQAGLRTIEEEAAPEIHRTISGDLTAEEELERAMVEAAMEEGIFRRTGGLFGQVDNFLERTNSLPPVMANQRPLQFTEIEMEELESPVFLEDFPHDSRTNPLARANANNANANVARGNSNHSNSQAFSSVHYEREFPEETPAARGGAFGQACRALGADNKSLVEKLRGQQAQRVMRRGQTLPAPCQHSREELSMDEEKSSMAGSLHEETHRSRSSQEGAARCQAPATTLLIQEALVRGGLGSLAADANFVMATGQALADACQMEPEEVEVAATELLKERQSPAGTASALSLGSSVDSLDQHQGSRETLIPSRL
experimental_protocol: Bond to the calcium channel: displacement of the specific (S)-^3H-devapamil bond in membrane preparations of guinea pig skeletal muscle
Type: binding
test_parameters: guinea pig skeletal muscle membranes; 1 nM (S)-^3H-devapamil; 60 minutes, room temperature; 10^-10 to 10^-6 M test substance
Counter-ions that a name gives are not always drawn.
value_kind: log10(Ki) (log10 of the value in nM)
Log10 applied to Ki; unit prior to transform: nM.

Reference set (5 entries):
{"columns": ["compound", "observed_measurement"],
 "data": [
  ["CCCCCCN(C)CCC[C@@](C#N)(c1cc(OC)c(OC)c(OC)c1)C(C)C [Example 24, hydrochloride]", 0.93],
  ["COc1cc(C(C#N)(CCCN(C)CCC2CCCCC2)C(C)C)cc(OC)c1OC (stereo not shown) [Example 11]", 0.76],
  ["CCCCC=CCCN(C)CCCC(C#N)(c1cc(OC)c(OC)c(OC)c1)C(C)C (stereo not shown) [Example 15, hydrochloride]", 0.88],
  ["CCCCCCN(C)CCCC(C#N)(c1cc(OC)c(OC)c(OC)c1)C(C)C (stereo not shown) [Example 23, hydrochloride]", 1.06],
  ["COc1ccc(C(C#N)(CCCN(C)CCC2CCCCC2)C(C)C)c([N+](=O)[O-])c1OC (stereo not shown) [Example 16]", 1.53]
]}

Give log10(Ki) for all compounds that follow.
1. COc1cccc(C(C#N)(CCCN(C)CCC2CCCCC2)C(C)C)c1 (stereo not shown) [Example 1]
2. CCCCCCCCCCN(C)CCCC(C#N)(c1cc(OC)c(OC)c(OC)c1)C(C)C (stereo not shown) [Example 2]
3. CC(C)C(C#N)(CCCN(C)CCC1=CCCCC1)c1ccccc1 (stereo not shown) [Example 18]
4. CCCCCCCCN(C)CCCC(C#N)(c1cc(OC)c(OC)c(OC)c1)C(C)C (stereo not shown) [Example 4]
5. CCOc1cc(OCC)cc(C(C#N)(CCCN(C)CCC2CCCCC2)C(C)C)c1 (stereo not shown) [Example 5]
6. CCCCCCCCN(C)CCC[C@@](C#N)(c1cc(OC)c(OC)c(OC)c1)C(C)C [Example 6]
7. COc1cc([C@](C#N)(CCCN(C)CCC2CCCCC2)C(C)C)cc(OC)c1OC [Example 13, hydrochloride]

1: 1.21; 2: 1.28; 3: 1.56; 4: 0.72; 5: 1.08; 6: 0.46; 7: 0.53

Please report log10(Ki) for the following compound: COc1cc(OC)cc(C(C#N)(CCCN(C)CCC2CCCCC2)C(C)C)c1 (stereo not shown) [Example 10]
0.96

---

Can you tell me Ki for the items I'm about to list?
study_target: serotonin-S2-receptor (Rattus norvegicus, UniProt P14842)
Construct: membrane preparations of cerebral cortex of the rat; from tissue; host or cells: rat cerebral cortex, membrane preparation
Sequence (P14842 whole entry): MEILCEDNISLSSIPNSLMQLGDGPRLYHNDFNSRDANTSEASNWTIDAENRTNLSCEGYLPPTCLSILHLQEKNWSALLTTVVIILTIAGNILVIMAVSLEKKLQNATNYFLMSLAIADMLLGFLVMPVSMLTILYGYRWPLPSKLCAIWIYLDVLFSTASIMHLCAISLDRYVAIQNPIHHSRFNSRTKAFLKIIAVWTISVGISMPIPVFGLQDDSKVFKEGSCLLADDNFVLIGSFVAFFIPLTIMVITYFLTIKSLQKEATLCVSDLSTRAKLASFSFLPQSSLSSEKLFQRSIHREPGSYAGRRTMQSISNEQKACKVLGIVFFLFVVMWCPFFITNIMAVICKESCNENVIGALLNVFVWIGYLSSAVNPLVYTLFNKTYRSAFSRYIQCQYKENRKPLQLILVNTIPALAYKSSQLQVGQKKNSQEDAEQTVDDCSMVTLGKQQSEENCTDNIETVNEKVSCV
experimental_protocol: Bond to the serotonin-S2-receptor: displacement of the specific ^3H-ketanserine bond in membrane preparations of cerebral cortex of the rat
Assay type: binding
test_parameters: rat cerebral cortex membranes; 1 nM ^3H-ketanserine; 60 minutes, room temperature; 10^-10 to 10^-6 M test substance
Method: (b) Bond to the serotonin-S2 -receptor Displacement of the specific ^3 H-ketanserine bond in membrane preparations of cerebral cortex of the rat […] The competition constants (Ki values in nM) were calculated by nonlinear regression analysis on an IBM computer using the program Ligand from Munson and Rodbard (Analytical Biochemistry 107 (1980), 220).
Structures can show the parent of a compound that is named as a salt.
One number for each entry, in nM.

{"columns": ["compound", "study_target", "observed_measurement"],
 "data": [
  ["CCCCCCN(C)CCC[C@@](C#N)(c1cc(OC)c(OC)c(OC)c1)C(C)C [Example 24, hydrochloride]", "serotonin-S2-receptor (Rattus norvegicus, UniProt P14842)", 21.1],
  ["CCOc1cc(OCC)cc(C(C#N)(CCCN(C)CCC2CCCCC2)C(C)C)c1 (centres unmarked)", "serotonin-S2-receptor (Rattus norvegicus, UniProt P14842)", 20],
  ["COc1cc(OC)cc(C(C#N)(CCCN(C)CCC2CCCCC2)C(C)C)c1 (centres unmarked)", "serotonin-S2-receptor (Rattus norvegicus, UniProt P14842)", 2.8]
]}

Give Ki for all compounds that follow.
1. COc1cc([C@](C#N)(CCCN(C)CCC2CCCCC2)C(C)C)cc(OC)c1OC [Example 13, hydrochloride]
2. CCCCCCCCN(C)CCCC(C#N)(c1cc(OC)c(OC)c(OC)c1)C(C)C (centres unmarked)
3. CCCCCCCCCCN(C)CCCC(C#N)(c1cc(OC)c(OC)c(OC)c1)C(C)C (centres unmarked)
4. CC(C)C(C#N)(CCCN(C)CCC1=CCCCC1)c1ccccc1 (centres unmarked)

1. 3.3
2. 26.4
3. 21
4. 4

Please report Ki for the following compound: COc1cc(C(C#N)(CCCN(C)CCC2CCCCC2)C(C)C)cc(OC)c1OC (centres unmarked)
10.7
